# target-or-test-system: SARS-CoV-2 nucleocapsid protein (N) (SARS-CoV-2, UniProt P0DTC9 1-419)
# experimental-protocol: BLI

binder	koff [s⁻¹]
CXCL9 (ligand) TPVVRKGRCSCISTNQGTIHLQSLKDLKQFAPSPSCEKIEIIATLKNGVQTCLNPDSADVKELIKKWEKQVSQKKKQKNGKKHQKKKVLKVRKSQRSRQKKTT	0.00085
CCL21 (ligand) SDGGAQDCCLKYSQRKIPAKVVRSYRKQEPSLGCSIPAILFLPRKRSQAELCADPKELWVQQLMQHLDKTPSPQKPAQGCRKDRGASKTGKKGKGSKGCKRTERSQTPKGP	0.0014
CXCL4 (ligand) EAEEDGDLQCLCVKTTSQVRPRHITSLEVIKAGPHCPTAQLIATLKNGRKICLDLQAPLYKKIIKKLLES	0.00053

Value source: paper PMC9348789
